Origin of values: PubChem BioAssay AID2546

# MEASUREMENT_DESCRIPTION: VP16 counterscreen qHTS for inhibitors of ROR gamma transcriptional activity;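 note: Gal4-VP16 expression switched on by copper sulfate through the metallothionein promoter; nearly all actives have a fitted effect of over 50% in size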
# CONDITIONS_USED: Drosophila S2 Gal4-VP16 UAS-luciferase, luminescence, 20 h; series mostly up to 53.6 µM
Among all 310,000 compounds or so, about 11,000 (3.5%) were called active. About 8% were inconclusive and are not listed. Calls come from the whole dose curve; as a rule, active = well fitted inhibition curve with a large enough effect; inconclusive = small, poorly fitted or top-dose-only effect, or effect the other way; inactive = flat fitted curve, though single readings scatter. The list comes from a sample in which actives are over-represented; it also holds close analogues and randomly drawn compounds.
Lab note: assign the record to one of 1 (active), -1 (inactive)

Study these solved cases before continuing.
COc1ccc(NC(=O)C2COc3ccccc3O2)cc1 (stereo not drawn) : -1
CCOc1ccc(-c2nc(N)ncc2-c2ccccc2OC)c(O)c1 : -1
CC(C)(C)c1nnc(N/N=C/c2ccc(O)cc2)n(N)c1=O : 1
CC(=O)c1cccc(NC(=O)C2COc3ccccc3O2)c1 (stereo not drawn) : -1
CCOc1ccccc1NS(=O)(=O)c1c[nH]c(C(=O)OC)c1 : -1

[Q] I would be grateful if you could indicate the recorded call for CCNC(=S)N(CCN(CC)CC)Cc1cc2cc3c(cc2[nH]c1=O)OCCO3 .
[A] -1

[Q] Would you mind doing C[C@]12CC[C@@H]3c4ccc(O)cc4C[C@@H](CCCCCCCCCS(=O)CCCC(F)(F)C(F)(F)F)C3[C@@H]1CC[C@@H]2O (stereo partly drawn) as well?
[A] -1

[Q] Follow-up entry: CCCN(CC1COc2ccccc2O1)C(=S)Nc1ccc(C)cc1 (stereo not drawn)
[A] 1
